# test_details: Toxicity Testing in Uninfected Cells
# Format: cell-based
# run_conditions: human, hela-ace2 cells, uninfected Hela-ACE cells, Cell-Titer Glo cell viability
measured_property: CC50 at 48 h

[[record]]
smiles_data = "Cc1ccc2cncc(N3C(=O)CCN(c4cc(Cl)cc(OCC(F)(F)F)c4)C3=O)c2c1"
reported_value = "> 99 µM"


* * *

# System: SARS-CoV-2
# test_details: SARS-CoV-2/Hela-ACE Test
# Assay type: cell-based
# run_conditions: Severe acute respiratory syndrome coronavirus 2, HeLa, 48 h, read-out: Hela ACE2-CoV-2 EC50 (µM)
measured_property: EC50 (µM)

[[record]]
compound = "Cc1ccc2cncc(N3C(=O)CCN(c4cc(Cl)cc(OCC(F)(F)F)c4)C3=O)c2c1 [Example 48]"
target_or_system = "SARS-CoV-2"
output_unit = "µM"
reported_value = 0.052


* * *

pIC50: −log10 of the molar value.
The following compounds have recorded pIC50 on UniProt:P0DTD1.
measured_property: pIC50

[[record]]
smiles_data = "O=C1CCN(c2cc(Cl)cc(OCC(F)(F)F)c2)C(=O)N1c1cncc2ccc(F)cc12"
measured_property = "pIC50"
reported_value = 7.37

[[record]]
smiles_data = "Cc1ccc2cncc(N3C(=O)CCN(c4cc(Cl)cc(OCC(F)(F)F)c4)C3=O)c2c1"
measured_property = "pIC50"
reported_value = 7.30

[[record]]
smiles_data = "Cc1cncc(N2C(=O)CCN(c3cc(Cl)cc(OCC(F)(F)F)c3)C2=O)c1C"
measured_property = "pIC50"
reported_value = 7.26

